Cited source: patent US9708368B2

# assayed_system: S. aureus SPase (Staphylococcus aureus)
# Sequence (P0A070 whole entry): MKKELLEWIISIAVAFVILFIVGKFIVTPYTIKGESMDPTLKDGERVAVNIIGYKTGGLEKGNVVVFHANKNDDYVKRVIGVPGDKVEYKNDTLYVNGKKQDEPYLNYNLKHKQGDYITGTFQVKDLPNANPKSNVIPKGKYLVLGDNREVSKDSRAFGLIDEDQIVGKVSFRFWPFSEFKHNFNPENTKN
# assay_details: biochemical
Square brackets hold non-standard residues; d marks the D form. Peptide text beside a SMILES is read from it. * marks the point of attachment. ξ: configuration not given here. boroAla((+)-pinanediol) = C[C@H](N*)B1O[C@@H]2C[C@@H]3C[C@@H](C3(C)C)[C@]2(C)O1; Biphenylcarbonyl(4'-Bu) = CCCCc1ccc(-c2ccc(C(=O)*)cc2)cc1; X1 = C[C@H](N*)B1OC2C[C@@H]3C[C@@H](C3(C)C)[C@]2(C)O1; NMeThr(3ξ) = CN[C@H](C(=O)O)C(C)O; Myristoyl = CCCCCCCCCCCCCC(=O)*; Thr(3ξ) = CC(O)[C@H](N)C(=O)O; boroAla = C[C@H](N*)B(O)O; Dab = NCC[C@H](N)C(=O)O; βAla = NCCC(=O)O
Known pIC50 of a selection of compounds
Convention used: pIC50 is expressed as -log10 of the molar concentration.

These recorded examples may help you get a feel for the data.
{"compound": "CCCCc1ccc(-c2ccc(C(=O)N[C@@H](CCN)C(=O)N[C@H](C(=O)N[C@@H](C)C(=O)N[C@@H](CCCCN)C(=O)N[C@@H](C)B(O)O)[C@@H](C)O)cc2)cc1 [Compound 178] ({Biphenylcarbonyl(4'-Bu)}-[Dab]TAK-boroAla)", "assayed_system": "S. aureus SPase (Staphylococcus aureus)", "endpoint_result": 7.24}
{"compound": "CCCCc1ccc(-c2ccc(C(=O)N[C@@H](CCN)C(=O)N[C@@H](CCN)C(=O)N[C@@H](C)C(=O)N[C@@H](CC(C)C)C(=O)N[C@@H](C)B3O[C@@H]4C[C@@H]5C[C@@H](C5(C)C)[C@]4(C)O3)cc2)cc1 [Compound 171] ({Biphenylcarbonyl(4'-Bu)}-[Dab][Dab]AL-{boroAla((+)-pinanediol)})", "assayed_system": "S. aureus SPase (Staphylococcus aureus)", "endpoint_result": 6.28}
{"compound": "CCCCc1ccc(-c2ccc(C(=O)N[C@@H](CCCCN)C(=O)N[C@@H](CCC(=O)O)C(=O)N[C@@H](C)C(=O)N[C@@H](CCCCN)C(=O)N[C@@H](C)B3O[C@@H]4C[C@@H]5C[C@@H](C5(C)C)[C@]4(C)O3)cc2)cc1 [Compound 151] ({Biphenylcarbonyl(4'-Bu)}-KEAK-{boroAla((+)-pinanediol)})", "assayed_system": "S. aureus SPase (Staphylococcus aureus)", "endpoint_result": 7.42}
{"compound": "CCCCCCCCCC(=O)N[C@@H](CC(C)C)C(=O)N[C@H](C(=O)N1CCC[C@@H]1C(=O)N[C@H](C(=O)N[C@@H](C)C(=O)N[C@@H](Cc1ccc(O)cc1)C(=O)NC(C)C(=O)C(=O)NC)C(C)O)C(C)O (mixture of isomers)", "assayed_system": "S. aureus SPase (Staphylococcus aureus)", "endpoint_result": 4.74}
{"compound": "CCCCc1ccc(-c2ccc(C(=O)N[C@@H](CCCCN)C(=O)N[C@H](C(=O)N[C@@H](C)C(=O)N[C@@H](CCN)C(=O)N[C@@H](C)B3O[C@@H]4C[C@@H]5C[C@@H](C5(C)C)[C@]4(C)O3)[C@@H](C)O)cc2)cc1 [Compound 140] ({Biphenylcarbonyl(4'-Bu)}-KTA[Dab]-{boroAla((+)-pinanediol)})", "assayed_system": "S. aureus SPase (Staphylococcus aureus)", "endpoint_result": 7.28}

## Input Requested field: pIC50. Item: CCCCc1ccc(-c2ccc(C(=O)NCCC(=O)N[C@@H](CCCCN)C(=O)N[C@@H](CCCCN)C(=O)N[C@@H](C)C(=O)N[C@@H](CC(C)C)C(=O)N[C@@H](C)B3OC4C[C@@H]5C[C@@H](C5(C)C)[C@]4(C)O3)cc2)cc1 (some centres unmarked) [Compound 218] ({Biphenylcarbonyl(4'-Bu)-βAla}-KKAL-X1)
## Output 7.89

## Input Requested field: pIC50. Item: CCCCc1ccc(-c2ccc(CNCCC[C@H](NC(C)=O)C(=O)N[C@H](C(=O)N[C@@H](C)C(=O)N[C@@H](CCCCN)C(=O)N[C@@H](C)B3OC4C[C@@H]5C[C@@H](C5(C)C)[C@]4(C)O3)[C@@H](C)O)cc2)cc1 (some centres unmarked)
## Output 6.96

## Input Give the measured pIC50 of CCCCc1ccc(-c2ccc(C(=O)NCCC(=O)N[C@@H](CCCCN)C(=O)N[C@H](C(=O)N[C@@H](C)C(=O)N[C@@H](CCCCN)C(=O)N[C@@H](C)B3OC4C[C@@H]5C[C@@H](C5(C)C)[C@]4(C)O3)[C@@H](C)O)cc2)cc1 (some centres unmarked) [Compound 193] ({Biphenylcarbonyl(4'-Bu)-βAla}-KTAK-X1) .
## Output 8.52

## Input Looking for the measured pIC50 of CCCCc1ccc(-c2ccc(C(=O)NCCC(=O)N[C@@H](CCCCN)C(=O)N[C@H](C(=O)N[C@@H](C)C(=O)N[C@@H](CC(N)=O)C(=O)N[C@@H](C)B(O)O)[C@@H](C)O)cc2)cc1 [Compound 204] ({Biphenylcarbonyl(4'-Bu)-βAla}-KTAN-boroAla) , can you help?
## Output 7.89

## Input # get_value(readout='pIC50', item= CCCCc1ccc(-c2ccc(C(=O)N[C@@H](CCN)C(=O)N[C@H](C(=O)N[C@@H](C)C(=O)N[C@@H](CCCCN)C(=O)N[C@@H](C)B3OC4C[C@@H]5C[C@@H](C5(C)C)[C@]4(C)O3)C(C)O)cc2)cc1 (some centres unmarked) [Compound 148] ({Biphenylcarbonyl(4'-Bu)}-[Dab][Thr(3ξ)]AK-X1) )
## Output 6.85

## Input So what's the measured pIC50 for this one? CCCCCCCCCCCCCC(=O)N[C@H](CO)C(=O)N[C@H](C)C(=O)NCC(=O)N(C)[C@H](C(=O)N[C@@H](C)C(=O)N[C@@H](CC(C)C)C(=O)NCC=O)C(C)O (some centres unmarked) [Compound 104] (Myristoyl-[dS][dA]G[NMeThr(3ξ)]ALG-aldehyde)
## Output 7.74

## Input # get_value(readout='pIC50', item= CCCCc1ccc(-c2ccc(CNCCC[C@H](N)C(=O)N[C@H](C(=O)N[C@@H](C)C(=O)N[C@@H](CCCCN)C(=O)N[C@@H](C)B3OC4C[C@@H]5C[C@@H](C5(C)C)[C@]4(C)O3)[C@@H](C)O)cc2)cc1 (some centres unmarked) )
## Output 7.46

## Input What measured pIC50 goes with CCCCc1ccc(-c2cnc(C(=O)N[C@@H](CCN)C(=O)N[C@H](C(=O)N[C@@H](C)C(=O)N[C@@H](CCCCN)C(=O)N[C@@H](C)B3OC4C[C@@H]5C[C@@H](C5(C)C)[C@]4(C)O3)[C@@H](C)O)nc2)cc1 (some centres unmarked) ?
## Output 7.27

## Input Quick one: pIC50 for CCCCc1ccc(-c2ccc(C(=O)N[C@@H](CCN)C(=O)N[C@@H](CCN)C(=O)N[C@@H](C)C(=O)N[C@@H](CC(C)C)C(=O)N[C@@H](C)B(O)O)cc2)cc1 [Compound 179] ({Biphenylcarbonyl(4'-Bu)}-[Dab][Dab]AL-boroAla) ?
## Output 6.24
